experiment: physchem; conditions: 30 °C, organic solvent or mixture, thermodynamic from solid, solubility (based on mean values)
READOUT NAME: solubility at 48 h (mg/mL)

MOLECULE | READOUT NAME | NUMERIC VALUE
O=C(C1CCCCC1)N1CC(=O)N2CCc3ccccc3C2C1 (stereo not shown) | solubility at 48 h | 67
